I'd be grateful if you could share measured IC50 for these entries.
system: Vero; test: Cytotoxicity against African green monkey vero cells assessed as reduction in cell viability measured after 48 hrs by MTT assay; format: functional, cell-based; conditions: Chlorocebus sabaeus
Only the number, expressed in mg/L, is required.

Look up IC50 for this molecule: Nc1ncc(F)cc1-c1c[nH]c(C(=O)NC2C3CC4CC(C3)CC2C4)c1 (centres undefined)
33.9

# input molecule: O=C(NC1C2CC3CC(C2)CC1C3)c1cc(-c2ccc(F)cc2)c[nH]1 (centres undefined) ; wanted: its IC50
12.6

Value lookup for IC50; key = CC1(C)CCC(NC(=O)c2cc3c(Cl)cc(Cl)cc3[nH]2)CC1
10.5

Reported IC50 for Cc1nc(F)ccc1-c1c[nH]c(C(=O)NC2C3CC4CC(C3)CC2C4)c1 (centres undefined) : what is it?
27.7

Which IC50 value is on record for O=C(NC1C2CC3CC(C2)CC1C3)c1cc(-c2ccccc2F)c[nH]1 (centres undefined) ?
12.6

Quick check: IC50 of O=C(NC1C2CC3CC(C2)CC1C3)c1cc(-c2ccncc2Cl)c[nH]1 (centres undefined) ?
58.7

Which IC50 value is on record for COc1cnccc1-c1c[nH]c(C(=O)NC2C3CC4CC(C3)CC2C4)c1 (centres undefined) ?
58.8

Looking for the measured IC50 of O=C(NC1C2CC3CC(C2)CC1C3)c1cc(-c2ccccn2)c[nH]1 (centres undefined) , can you help?
47.3

Would you kindly share the measured IC50 for O=C(NC1C2CC3CC(C2)CC1C3)c1cc(-c2cccnc2)c[nH]1 (centres undefined) ?
39.5

Entry under review: O=C(NC1C2CC3CC(C2)CC1C3)c1cc(-c2ccc(Cl)cc2)c[nH]1 (centres undefined) . Reported IC50?
12.6

I would be grateful if you could share the reported IC50 for COc1cc(F)ccc1-c1c[nH]c(C(=O)NC2C3CC4CC(C3)CC2C4)c1 (centres undefined) .
22

###

system: Mycobacterium tuberculosis; assay: Antimycobacterial activity against Mycobacterium tuberculosis mc2 6206 assessed as decrease in trehalose dimycolate measured after 16 hrs using [14C]acetate by TLC analysis; type: functional, organism-based; conditions: DDE = dose-dependent effect
quantity_kind: inhibition

Solved entries (count: 4):
| compound | inhibition |
| --- | --- |
| O=C(NC12CC3CC(CC(C3)C1)C2)c1cc(-c2ccc(F)cc2F)c[nH]1 | Dde |
| O=C(NC1CCCCCCC1)c1cc(-c2ccc(F)nc2F)c[nH]1 | Dde |
| O=C(NC1C2CC3CC(C2)CC1C3)c1cc(-c2ccc(Cl)cc2Cl)c[nH]1 (stereo not given) | Dde |
| O=C(NC1C2CC3CC(C2)CC1C3)c1cc(-c2ccc(F)nc2F)c[nH]1 (stereo not given) | Dde |

Continue with the next compound.
Any idea what inhibition came out for O=C(NC1CCCCCCC1)c1cc(-c2ccc(F)cc2F)c[nH]1 on Mycobacterium tuberculosis?
Dde

###

experiment: Metabolic stability in mouse liver microsomes at 0.5 uM measured after 15 to 120 mins in presence of NADPH by LC-MS/MS analysis; assay type: ADME, Microsome; conditions: time 15-120 min
Tag: y if measured Stability is not below 40%, n if it is.

Please indicate if the recorded Stability for O=C(NC12CC3CC(CC(C3)C1)C2)c1cc(-c2ccncc2Cl)c[nH]1 meets or exceeds 40%.
y

# bool: Stability of O=C(NC1C2CC3CC(C2)CC1C3)c1cc(-c2ccncc2Cl)c[nH]1 (stereo not given) >= 40%
y

Textbook exercise: given the entry COc1cc(F)ccc1-c1c[nH]c(C(=O)NC23CC4CC(CC(C4)C2)C3)c1 , state whether its Stability is greater than or equal to 40%.
n

State whether the measured Stability reaches 40%, counting equality as reaching it, for O=C(NC1CCCCCCC1)c1cc(-c2ccc(F)nc2F)c[nH]1
n

// inclusive: Stability at least 40%? input: O=C(NC1C2CC3CC(C2)CC1C3)c1cc(-c2ccc(F)nc2F)c[nH]1 (stereo not given)
y

###

Please respond with reported selectivity ratio for every item in the list.
experiment: in vitro; details: monkey, Vero cells
Description: Selectivity index, ratio of IC50 for African green monkey vero cells to MIC for Mycobacterium tuberculosis H37Rv
I only need the number, thanks.

Look up selectivity ratio: O=C(NC1C2CC3CC(C2)CC1C3)c1cc(-c2ccc(F)cc2F)c[nH]1 (configuration not stated)
900

Find the recorded selectivity ratio belonging to Cc1nc(F)ccc1-c1c[nH]c(C(=O)NC2C3CC4CC(C3)CC2C4)c1 (configuration not stated) and report it.
447

Give the measured selectivity ratio of COc1cc(F)ccc1-c1c[nH]c(C(=O)NC2C3CC4CC(C3)CC2C4)c1 (configuration not stated) .
1380

Sample O=C(NC1C2CC3CC(C2)CC1C3)c1cc(-c2ccc(Cl)cc2)c[nH]1 (configuration not stated) — what was its selectivity ratio?
126

Name the recorded selectivity ratio for O=C(NC1C2CC3CC(C2)CC1C3)c1cc(-c2ccncc2F)c[nH]1 (configuration not stated) .
415

Entry O=C(NC1C2CC3CC(C2)CC1C3)c1cc(-c2cccnc2)c[nH]1 (configuration not stated) has what selectivity ratio?
988

Find the recorded selectivity ratio belonging to COc1ccc(-c2c[nH]c(C(=O)NC3C4CC5CC(C4)CC3C5)c2)cn1 (configuration not stated) and report it.
137

Value lookup for selectivity ratio; key = O=C(NC1C2CC3CC(C2)CC1C3)c1cc(-c2ccc(F)cc2)c[nH]1 (configuration not stated)
788

Returns the measured selectivity ratio for the input molecule. Input: O=C(NC1C2CC3CC(C2)CC1C3)c1cc(-c2ccc(F)nc2)c[nH]1 (configuration not stated)
391

Requested field: selectivity ratio. Item: COc1ncccc1-c1c[nH]c(C(=O)NC2C3CC4CC(C3)CC2C4)c1 (configuration not stated)
737

What selectivity ratio value was documented for this molecule, Nc1ncc(F)cc1-c1c[nH]c(C(=O)NC2C3CC4CC(C3)CC2C4)c1 (configuration not stated) ?
77

// returns reported selectivity ratio for input O=C(NC1C2CC3CC(C2)CC1C3)c1cc(-c2ccccc2F)c[nH]1 (configuration not stated)
1320

Entry CC1(C)CCC(NC(=O)c2cc3c(Cl)cc(Cl)cc3[nH]2)CC1 has what selectivity ratio?
700

Quick one: selectivity ratio for O=C(NC1C2CC3CC(C2)CC1C3)c1cc(-c2ccncc2Cl)c[nH]1 (configuration not stated) ?
3670

State the recorded selectivity ratio for this entry: O=C(NC1C2CC3CC(C2)CC1C3)c1cc(-c2ccccn2)c[nH]1 (configuration not stated)
394

Would you kindly share the measured selectivity ratio for O=C(NC1C2CC3CC(C2)CC1C3)c1cc(-c2ccncc2)c[nH]1 (configuration not stated) ?
99

I'd like to know its selectivity ratio. The molecule in question is COc1cnccc1-c1c[nH]c(C(=O)NC2C3CC4CC(C3)CC2C4)c1 (configuration not stated)
245

###

test: Metabolic stability in mouse liver microsomes at 0.5 uM measured after 15 to 120 mins in presence of NADPH by LC-MS/MS analysis; assay type: ADME, Microsome; settings: time 15-120 min
quantity_kind: Stability
Your answer should be a number followed by the unit of measure.

Data request, read-out Stability, for COc1cc(F)ccc1-c1c[nH]c(C(=O)NC2CCCCCCC2)c1
9.03%

Query (compound): O=C(NC1C2CC3CC(C2)CC1C3)c1cc(-c2ccccc2F)c[nH]1 (stereo not given) ; field requested: Stability
0%

Could you share which Stability value was measured for COc1ncc(F)cc1-c1c[nH]c(C(=O)NC2C3CC4CC(C3)CC2C4)c1 (stereo not given) ?
1.97%

Quick check: Stability of O=C(NC1C2CC3CC(C2)CC1C3)c1cc(-c2cccnc2F)c[nH]1 (stereo not given) ?
0%

Look up Stability: COc1ncccc1-c1c[nH]c(C(=O)NC2C3CC4CC(C3)CC2C4)c1 (stereo not given)
0.63%

Suppose we examine the compound O=C(NC12CC3CC(CC(C3)C1)C2)c1cc(-c2ccc(F)nc2F)c[nH]1 ; what Stability value has been reported?
47.6%

Which Stability value is on record for O=C(NC12CC3CC(CC(C3)C1)C2)c1cc(-c2ccc(F)cc2F)c[nH]1 ?
57.4%

# get_value(readout='Stability', item= O=C(NC1C2CC3CC(C2)CC1C3)c1cc(-c2ccc(F)cc2)c[nH]1 (stereo not given) )
70.4%

So what does the record say about Stability for O=C(NC1C2CC3CC(C2)CC1C3)c1cc(-c2ccc(F)cc2F)c[nH]1 (stereo not given) ?
61.4%

Any idea what its Stability is? The compound is Cc1nc(F)ccc1-c1c[nH]c(C(=O)NC2C3CC4CC(C3)CC2C4)c1 (stereo not given)
32.3%
